Biological target: T1, human IL-2Rγ (common cytokine receptor γ-chain) (human, UniProt P31785 23-262, limits assumed)
T1 construct: Recombinant protein coated on the plate or immobilised on a CM5 chip; also called hu IL-2R; CD132
T1 sequence: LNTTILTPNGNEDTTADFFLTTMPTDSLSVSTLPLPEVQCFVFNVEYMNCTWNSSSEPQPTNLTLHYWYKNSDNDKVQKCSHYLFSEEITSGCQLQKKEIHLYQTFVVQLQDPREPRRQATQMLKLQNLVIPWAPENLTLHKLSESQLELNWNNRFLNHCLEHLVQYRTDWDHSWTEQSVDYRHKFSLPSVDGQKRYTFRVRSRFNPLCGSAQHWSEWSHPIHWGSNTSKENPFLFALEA
Experiment: PE binding ELISA, periplasmic extract on coated protein
measurementName: OD (PE binding ELISA) (OD450 nm)

[
  {
    "binder": "FJ1427_P035MP04E12 (VHH, VHH in periplasmic extract; also called clone nr) VHH: QLQLVESGGGWVQVGESLRLSCAPSGRTFASGIMGWFRQAPGKEREFVARIILNNNSTRYTDSVKGRFTISRDSAKNTMYLQMNTLRPEDTAVYYCAARDRYGSGNSLSPSAYDYWGQGTQVTVSS",
    "resultUnits": "OD450 nm",
    "reportedValue": 1.33
  },
  {
    "binder": "FJ1427_P035MP04G11 (VHH, VHH in periplasmic extract; also called clone nr) VHH: QVQLVESGGGWVQVGESLRLSCAPSGRTFVSGIMGWFRQAPGEEREFVARIILNNNSTRYTDSVKGRFTISRDSAKNTMYLQMNTLRPEDTAVYYCAARDRYGSGNSLSPSAYDYWGQGTQVTVSS",
    "resultUnits": "OD450 nm",
    "reportedValue": 1.4
  },
  {
    "binder": "FJ1427_P035MP04G10 (VHH, VHH in periplasmic extract; also called clone nr; 367) VHH: QVQLVESGGGWVQVGESLRLSCAPSGRTFVSGIMGWFRQAPGKEREFVARIILNSNSTRYTDSAKGRFTISRDSAKNTMYLQMDSLRPEDTAVYYCAARDRYGSGNSLSPSAYDYWGQGTQVTVSS",
    "resultUnits": "OD450 nm",
    "reportedValue": 0.839
  },
  {
    "binder": "FJ1427_P035MP04D01 (VHH, VHH in periplasmic extract; also called clone nr) VHH: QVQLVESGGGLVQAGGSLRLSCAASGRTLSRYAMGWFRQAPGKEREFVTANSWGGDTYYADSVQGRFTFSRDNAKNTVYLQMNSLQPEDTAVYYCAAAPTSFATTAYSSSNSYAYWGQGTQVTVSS",
    "resultUnits": "OD450 nm",
    "reportedValue": 1.02
  }
]
